protocol-summary: Metabolic stability in human liver microsomes assessed as intrinsic clearance measured for 60 mins
Type: ADME, Microsome
stated-conditions: read-out: CLH
attribute-measured: microsomal CLint (µL/min/mg)
The answer is to be given in µL/min/mg; state only the numeric part.

## Task # input molecule: `O=C(NCCCCCCNC(=O)c1ccc2c(c1)C1(OC2=O)c2ccc(O)cc2Oc2cc(O)ccc21)c1ccc(CNc2ncnc3c2ncn3[C@@H]2O[C@H](COP(=O)(O)CP(=O)(O)O)[C@@H](O)[C@H]2O)cc1` ; wanted: its microsomal CLint
## Result 12

====

assayed-system: UniProt P21589
Sequence (P21589 whole entry, the tested form may be a part): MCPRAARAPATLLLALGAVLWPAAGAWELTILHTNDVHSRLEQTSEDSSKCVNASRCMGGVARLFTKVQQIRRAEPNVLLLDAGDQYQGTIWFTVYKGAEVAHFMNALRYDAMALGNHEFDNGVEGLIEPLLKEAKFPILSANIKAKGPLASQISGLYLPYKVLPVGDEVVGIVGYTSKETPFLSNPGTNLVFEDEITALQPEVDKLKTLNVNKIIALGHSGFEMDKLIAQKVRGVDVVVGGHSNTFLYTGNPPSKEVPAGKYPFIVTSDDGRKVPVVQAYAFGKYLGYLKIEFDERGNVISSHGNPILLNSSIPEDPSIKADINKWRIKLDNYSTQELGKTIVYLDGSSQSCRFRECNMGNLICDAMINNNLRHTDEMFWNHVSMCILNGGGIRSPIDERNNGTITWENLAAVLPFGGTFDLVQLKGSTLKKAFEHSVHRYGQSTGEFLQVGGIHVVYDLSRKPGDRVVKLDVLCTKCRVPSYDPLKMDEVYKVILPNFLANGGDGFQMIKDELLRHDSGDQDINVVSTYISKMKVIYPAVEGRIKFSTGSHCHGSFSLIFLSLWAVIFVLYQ
protocol-summary: Inhibition of recombinant human C-terminal His-tagged CD73 (27 to 549 residues) expressed in Sf9 cells using [2,8-3H]-AMP as substrate incubated for 25 mins by scintillation counting method
attribute-measured: Ki (nM)
The answer is to be given in nM; state only the numeric part.

## Task Record lookup: for UniProt P21589, what Ki belongs to `O=C(NCCOCCOCCNC(=O)c1ccc2c(c1)C1(OC2=O)c2ccc(O)cc2Oc2cc(O)ccc21)c1ccc(CNc2ncnc3c2ncn3[C@@H]2O[C@H](COP(=O)(O)CP(=O)(O)O)[C@@H](O)[C@H]2O)cc1` ?
## Result 12.6

## Task Record lookup: for UniProt P21589, what Ki belongs to `O=C(NCCCCCCNC(=O)c1ccc2c(c1)C1(OC2=O)c2ccc(O)cc2Oc2cc(O)ccc21)c1ccc(CNc2ncnc3c2ncn3[C@@H]2O[C@H](COP(=O)(O)CP(=O)(O)O)[C@@H](O)[C@H]2O)cc1` ?
## Result 2.98
